Subject of test: EBOV GP ectodomain residues 1-636 (GPec) (Zaire ebolavirus, strain  …, UniProt Q05320)
Measured parameter: binding result

1) 5.6.c3113 (antibody, V domains shown) VH: EVQMVESGGGLAQPGGSLRLSCAASGFTFSSYEMSWVRQAPGKGLEWVSYISTSGNTIYYADSVKGRFTISRDNAKNSLYLQMNNLRAEDTAFYYCAANHGDNLFWYFDLWGRGTLVTVSS VL: DIQLIQSPSFLSASVGDRVTITCRASQGISSYLAWYQQKLGKAPKLLMYAASTLQSGVPSRFSGSGSGTEFTLTISSLQPEDFATYYCQQLNGYPPTFGQGTKLEIK: binds
2) 5.6.c3250 (antibody, V domains shown) VH: QVQLVESGGGLVKPGGSLRLSCAASGFTFSDYDMSWIRQAPGKGLEWISYISSSGTTIYDADSVKGRFTISRDNAKNSLSLQVNSLRAEDTAVYYCARNVEQIVGATLDYWGQGTLVTVSS VL: EIVLTQSPATLSLSPGERATLSCRASQSISSFLAWYQQKLGQAPRLLIFDASNRATGIPARFSGSGSGTDFTLTISSLEPEDFAVYYCHHWTFGQGTKVEIK: binds
